# Test system: BDF1 mice, P388 leukemia ip, median survival T/C
# PROCEDURE SUMMARY: NCI In Vivo Anticancer Drug Screen. Data for tumor model P388 Leukemia (intraperitoneal) in B6D2F1 (BDF1) mice
# TEST CONDITIONS: endpoint: median survival time; dose: 5.0 mg/kg/injection; schedule: Q01DX010 (ip); vehicle: saline
Inconclusive results and toxic doses are left out. Rule for the calls: active = survival T/C of 150% or more; inactive = T/C below 125% in these data.
Classes to choose from: active, inactive

Below are worked cases with known answers.
>>> group("Cc1cc(N(CCCl)CCCl)ccc1N=Nc1ccccc1C(=O)O")
"active"
>>> group("C=C1C(=O)OC2CC3(C)OC3C3OC3C3=CC(OC3=O)C12 (centres undefined)")
"inactive"
>>> group("C=C1C(=O)O[C@@H]2/C=C(/C)[C@@]3(O)C=C[C@](C)(C[C@@H](OC(=O)/C(=C\\C)COC(C)=O)[C@@H]12)O3")
"inactive"

Now turn to the next compound.
Task item: // return assay outcome for Cc1cccc2cc3cccc(C)[n+]3cc12
Reply: inactive

###

# System: BDF1 mice, P388 leukemia ip, median survival T/C
# PROCEDURE SUMMARY: NCI In Vivo Anticancer Drug Screen. Data for tumor model P388 Leukemia (intraperitoneal) in B6D2F1 (BDF1) mice
# TEST CONDITIONS: endpoint: median survival time; dose: 100.0 mg/kg/injection; schedule: Q04DX003 (ip); vehicle: saline sonified
Inconclusive results and toxic doses are left out. How the source made its calls: active means survival T/C of 150% or more; inactive means T/C below 125% in these data.
Classes to choose from: T for active, F for inactive

Below are worked cases with known answers.
>>> group("COc1cc(Cc2nccc3cc(OC)c(OC)cc23)c([N+](=O)[O-])cc1OC")
"F"
>>> group("NC1=NC(c2ccc(Cl)cc2)N(c2ccc(S(=O)(=O)Nc3ncccn3)cc2)C(N)=N1 (centres undefined)")
"F"
>>> group("Cc1ccc(Nc2nc(N)nc(CNc3ccc(Cl)cc3)n2)cc1")
"F"
>>> group("COC(=O)c1ccc(OCCOc2ccc(C(C)(C)CC(C)(C)C)cc2)c([N+](=O)[O-])c1")
"F"
>>> group("[O-][n+]1onc2c(-c3ccccc3)nnc(-c3ccccc3)c21")
"F"
>>> group("ClC(Cl)(Cl)C(Cl)(Cl)c1ccc(C(Cl)(Cl)C(Cl)(Cl)Cl)cc1")
"F"
>>> group("O=C(O)CC/C(=N/OCc1cc2c(cc1Cl)OCO2)C(=O)O")
"F"
>>> group("CC(=O)c1ccccc1OS(=O)(=O)c1ccc([N+](=O)[O-])cc1")
"F"

Task item: // return assay outcome for CCCCCCCCCCCCCCCC(=O)OCC1OC(n2ccc(N)nc2=O)C(O)C1O (centres undefined)
Reply: T

###

# System: BDF1 mice, P388 leukemia ip, median survival T/C
# PROCEDURE SUMMARY: NCI In Vivo Anticancer Drug Screen. Data for tumor model P388 Leukemia (intraperitoneal) in B6D2F1 (BDF1) mice
# TEST CONDITIONS: endpoint: median survival time; dose: 50.0 mg/kg/injection; schedule: Q01DX009 (ip); vehicle: saline with Tween-80
Inconclusive results and toxic doses are left out. How the source made its calls: active means survival T/C of 150% or more; inactive means T/C below 125% in these data.
Classes to choose from: YES (active), NO (inactive)

>>> group("CC/C(=C(\\CC)c1ccc(OC)cc1)c1ccc(OC)cc1")
"NO"
>>> group("CN(C)c1ccc(/C=C/c2ccnc3ccc(I)cc23)cc1")
"NO"
>>> group("S=c1cc(-c2ccco2)ss1")
"NO"

Now turn to the next compound.
Task item: // return assay outcome for NC(=S)N/N=C/c1cc(-c2cccc(N)c2)ccn1
Reply: YES

###

# Tested on: BDF1 mice, P388 leukemia ip, median survival T/C
# PROCEDURE SUMMARY: NCI In Vivo Anticancer Drug Screen. Data for tumor model P388 Leukemia (intraperitoneal) in B6D2F1 (BDF1) mice
# TEST CONDITIONS: endpoint: median survival time; dose: 12.5 mg/kg/injection; schedule: Q01DX009 (ip); vehicle: saline with Tween-80
Inconclusive results and toxic doses are left out. The calls were made as follows: active = survival T/C of 150% or more; inactive = T/C below 125% in these data.
Classes to choose from: TRUE (active), FALSE (inactive)

Below are worked cases with known answers.
>>> group("COc1cc2c(cc1OC)C1C(=CCC3c4cc(OC)c(OC)cc4CC[N+]31C)C=C2 (stereo unspecified)")
"FALSE"
>>> group("Cn1c(=O)c2[nH]c(CN(CCCl)CCCl)nc2n(C)c1=O")
"TRUE"
>>> group("O=[N+]([O-])c1ccc(S/N=C\\c2ccccc2)c([N+](=O)[O-])c1")
"FALSE"

Task item: // return assay outcome for O=C(O)c1ccc(=O)oc1
Reply: FALSE

Task item: // return assay outcome for NC(N)=NC(N)=Nc1ccc(-c2ccc(N=C(N)N=C(N)N)cc2)cc1
Reply: TRUE

Task item: // return assay outcome for Nc1nc2c(ncn2C2CC(O)C(CO)O2)c(=O)n1N (stereo unspecified)
Reply: FALSE

Task item: // return assay outcome for CN(C(=S)SSC(=S)N(C)c1ccccc1)c1ccccc1
Reply: FALSE

Task item: // return assay outcome for Cc1cc2c(C(C)C)c(O)c(O)cc2c(O)c1-c1c(C)cc2c(C(C)C)c(O)c(O)cc2c1O
Reply: FALSE

###

# System: BDF1 mice, P388 leukemia ip, median survival T/C
# PROCEDURE SUMMARY: NCI In Vivo Anticancer Drug Screen. Data for tumor model P388 Leukemia (intraperitoneal) in B6D2F1 (BDF1) mice
# TEST CONDITIONS: endpoint: median survival time; dose: 12.5 mg/kg/injection; schedule: Q01DX009 (ip); vehicle: saline; higher = longer survival
Inconclusive results and toxic doses are left out.
ENDPOINT NAME: T/C

>>> meas_value("C[N+]1=C2CCCC2=C(N)CC1")
"115 % of control"
>>> meas_value("COc1cccc(/C=C/[N+](=O)[O-])c1OC")
"106 % of control"
>>> meas_value("CCOC(=O)c1c(N)ssc1=S")
"113 % of control"

Task item: Report value: T/C, system: BDF1 mice, P388 leukemia ip, median survival T/C, molecule: Cc1noc(C)c1CON
Reply: 91 % of control

###

# Test system: BDF1 mice, P388 leukemia ip, median survival T/C
# PROCEDURE SUMMARY: NCI In Vivo Anticancer Drug Screen. Data for tumor model P388 Leukemia (intraperitoneal) in B6D2F1 (BDF1) mice
# TEST CONDITIONS: endpoint: median survival time; dose: 400.0 mg/kg/injection; schedule: Q04DX003 (ip); vehicle: saline
Inconclusive results and toxic doses are left out. The calls were made as follows: active = survival T/C of 150% or more; inactive = T/C below 125% in these data.
Classes to choose from: active, inactive

Below are worked cases with known answers.
>>> group("COc1cccc(/C=C/[N+](=O)[O-])c1OC")
"inactive"
>>> group("CCN(CC)CCOCCO")
"inactive"
>>> group("O=NN(CCBr)C(=O)NCCBr")
"active"
>>> group("Nc1ccc(C(=O)Nc2ccc(Nc3ccncc3)cc2)c([N+](=O)[O-])c1")
"inactive"

Task item: // return assay outcome for O=C(O)C(O)C(O)C(=O)O (stereo unspecified)
Reply: inactive

Task item: // return assay outcome for Cc1ccccc1C(c1ccccc1C)c1ccccc1C(=O)O
Reply: inactive

###

# Tested on: BDF1 mice, P388 leukemia ip, median survival T/C
# PROCEDURE SUMMARY: NCI In Vivo Anticancer Drug Screen. Data for tumor model P388 Leukemia (intraperitoneal) in B6D2F1 (BDF1) mice
# TEST CONDITIONS: endpoint: median survival time; dose: 100.0 mg/kg/injection; schedule: Q01DX009 (ip); vehicle: Klucel (hydroxypropylcellulose) (HPC)
Inconclusive results and toxic doses are left out. The calls were made as follows: active = survival T/C of 150% or more; inactive = T/C below 125% in these data.
Classes to choose from: 1.0 (active), 0.0 (inactive)

>>> group("Nc1ccc(S(=O)(=O)Nc2ccc(I)cc2)cc1")
0.0

Task item: // return assay outcome for NC(CSC(c1ccccc1)(c1ccccc1)c1ccc(F)cc1)C(=O)O (configuration not stated)
Reply: 1.0

Task item: // return assay outcome for CCCCCSc1nc(N)nc2nc[nH]c12
Reply: 0.0

Task item: // return assay outcome for COc1ccc(/C=C(C(=O)O)/C(=C/c2ccc(OC)c(OC)c2)C(=O)O)cc1OC
Reply: 0.0

###

# System: BDF1 mice, P388 leukemia ip, median survival T/C
# PROCEDURE SUMMARY: NCI In Vivo Anticancer Drug Screen. Data for tumor model P388 Leukemia (intraperitoneal) in B6D2F1 (BDF1) mice
# TEST CONDITIONS: endpoint: median survival time; dose: 75.0 mg/kg/injection; schedule: Q01DX009 (ip); vehicle: saline with Tween-80; higher = longer survival
Toxic doses and inconclusive results are not listed.
// reported T/C for each item listed

Example entries begin here.
>>> meas_value("CCC(=O)N(c1ccccc1)c1ccccc1")
"99 % of control"
>>> meas_value("CC1(c2cccs2)C(=O)NC(=O)N1C(=O)CCl (configuration not stated)")
"90 % of control"
>>> meas_value("CC(=O)OCC(OC(C)=O)C(OC(C)=O)C(OC(C)=O)C(C#N)OC(C)=O (configuration not stated)")
"100 % of control"
>>> meas_value("CN=C1c2ccccc2C2(c3ccccc3)C1N2C (configuration not stated)")
"109 % of control"
>>> meas_value("Clc1ccc(COC(Cn2ccnc2)c2ccc(Cl)cc2Cl)c(Cl)c1 (configuration not stated)")
"118 % of control"

Task item: In one line, give reported T/C of the entry CN(C)N=Nc1ccccc1C(N)=O .
Reply: 161 % of control

Task item: In one line, give reported T/C of the entry CC(=O)C/C(C)=N\NC(=S)SCc1ccccc1 .
Reply: 90 % of control
